Measured MIC K. pneu. accompanies every entry in the list below.
System: K. pneu.
measurement_protocol: Susceptibility testing (MIC, CLSI microdilution)
Format: cell-based, Klebsiella pneumoniae
study_conditions: 20 h at 35° C., unit assumed

| compound | comparator | MIC K. pneu. / µg/mL |
| --- | --- | --- |
| CCCc1ccc(-c2ccc(C(=O)N3CC[C@H](NS(C)(=O)=O)[C@H]3C(=O)NO)cc2)cc1 [Compound 3] | > | 64 |
| CCCc1ccc(-c2ccc(C(=O)N3CC[C@H](F)[C@H]3C(=O)NO)cc2)cc1 [Compound 6] | = | 32 |
| CCCc1ccc(-c2ccc(C(=O)N[C@@H](CCSC)C(=O)NO)cc2)cc1 [Compound 26] | > | 64 |
| CCCc1ccc(-c2ccc(C(=O)N3CCS(=O)(=O)[C@@H]3C(=O)NO)cc2)cc1 [Compound 19] | = | 4 |
| O=C(NC(C(=O)NO)C(F)(F)F)c1ccc(-c2ccc(F)cc2)cc1 (racemic) [Compound 25] | = | 16 |
| O=C(NO)c1cocc1C(=O)Nc1cccc(SC(F)(F)F)c1 [Compound 32] | > | 64 |
| CCCc1ccc(-c2ccc(C(=O)N3C[C@@H](N)[C@H](O)[C@H]3C(=O)NO)cc2)cc1 [Compound 11] | > | 64 |
| CCc1ccc(-c2ccc(C(=O)N3CC[C@@H](N)[C@H]3C(=O)NO)cc2)cc1 [Compound 34] | > | 64 |
| O=C(NC(C(=O)NO)C(F)(F)F)c1ccc(-c2cc(F)cc(F)c2)cc1 (racemic) [Compound 23] | = | 16 |
| CCCc1ccc(-c2ccc(C(=O)N3CC[C@H](NC)[C@H]3C(=O)NO)cc2)cc1 [Compound 5] | > | 64 |
| CCCc1ccc(-c2ccc(C(=O)NC(CS(C)(=O)=O)C(=O)NO)cc2)cc1 (stereo in doubt) [Compound 29] | = | 4 |
| CCCc1ccc(-c2ccc(C(=O)NC(CSC)C(=O)NO)cc2)cc1 (stereo in doubt) [Compound 28] | > | 64 |
| CCCc1ccc(-c2ccc(C(=O)N3CC[C@H](NC=O)[C@H]3C(=O)NO)cc2)cc1 [Compound 4] | > | 64 |
| CCCc1ccc(-c2ccc(C(=O)N3CC[C@H](N)[C@H]3C(=O)NO)cc2)cc1 [Compound 2] | = | 64 |
| CCCc1ccc(-c2ccc(C(=O)N3CCS(=O)(=O)[C@H]3C(=O)NO)cc2)cc1 [Compound 15] | = | 4 |
| CCCc1ccc(-c2ccc(C(=O)N3CC[C@@H](O)[C@H]3C(=O)NO)cc2)cc1 [Compound 39] | > | 64 |
| CCOc1ccc(-c2ccc(C(=O)N3CCS(=O)(=O)[C@H]3C(=O)NO)cc2)cc1 [Compound 33] | = | 32 |
| CCCc1ccc(-c2ccc(C(=O)N3CS(=O)(=O)CC3C(=O)NO)cc2)cc1 (stereo in doubt) [Compound 17] | = | 16 |
| CCCc1ccc(-c2ccc(C(=O)N3CCS[C@@H]3C(=O)NO)cc2)cc1 [Compound 18] | = | 32 |
| CCCc1ccc(-c2ccc(C(=O)N[C@@H](Cn3cccn3)C(=O)NO)cc2)cc1 [Compound 31] | > | 64 |
| CCCc1ccc(-c2ccc(C(=O)N3C[C@H](O)[C@H](O)[C@H]3C(=O)NO)cc2)cc1 [Compound 10] | > | 64 |
| CCCc1ccc(-c2ccc(C(=O)N3CC[C@H](OC)[C@H]3C(=O)NO)cc2)cc1 [Compound 7] | = | 64 |
| CCCc1ccc(-c2ccc(C(=O)N3CC[S+]([O-])[C@H]3C(=O)NO)cc2)cc1 (some centres unmarked) [Compound 14] | = | 64 |
| O=C(NO)[C@H]1N(C(=O)c2ccc(-c3ccc(C(F)(F)F)cc3)cc2)CCS1(=O)=O [Compound 38] | > | 64 |
| CCCc1ccc(-c2ccc(C(=O)NC(C(=O)NO)C(F)(F)F)cc2)cc1 (racemic) [Compound 20] | = | 0.5 |
| O=C(NO)[C@H]1N(C(=O)c2ccc(-c3ccc(F)cc3)cc2)CCS1(=O)=O [Compound 37] | > | 64 |
| CCOc1ccc(-c2ccc(C(=O)NC(C(=O)NO)C(F)(F)F)cc2)cc1 (racemic) [Compound 22] | = | 1 |
| CCCc1ccc(-c2ccc(C(=O)N3CSC[C@H]3C(=O)NO)cc2)cc1 [Compound 16] | > | 64 |
| O=C(NO)[C@H]1N(C(=O)c2ccc(-c3cc(F)cc(F)c3)cc2)CCS1(=O)=O [Compound 36] | > | 64 |
| CCCc1ccc(-c2ccc(C(=O)N3CC[C@H](N=[N+]=[N-])[C@H]3C(=O)NO)cc2)cc1 [Compound 1] | > | 64 |
| CCCc1ccc(-c2ccc(C(=O)N[C@@H](CCS(C)(=O)=O)C(=O)NO)cc2)cc1 [Compound 27] | > | 64 |
| O=C(NC(C(=O)NO)C(F)(F)F)c1ccc(-c2ccsc2)cc1 (racemic) [Compound 24] | > | 64 |

// provenance: patent US8088804B2
